Streptococcus pneumoniae Group D 9960 data, read-out MIC
State just the number; it will be interpreted in µg/mL.

Examples from the recorded data:
>  <molecule>
CCC1OC(=O)CC(OC(C)=O)C(C)C(OC2OC(C)C(OC3CC(C)(O)C(O)C(C)O3)C(N(C)C)C2O)C(CC=O)CC(C)C(=O)C=CC(C)=CC1COC1OC(C)C(O)C(O)C1OC (stereo not shown)

>  <unit-string>
µg/mL

>  <MIC>
2

$$$$
>  <molecule>
CCC1OC(=O)CC(OC(C)=O)C(C)C(OC2OC(C)C(OC3CC(C)(O)C(OC(=O)CC(C)C)C(C)O3)C(N(C)C)C2O)C(CC=O)CC(C)C(=O)C=CC(C)=CC1COC1OC(C)C(O)C(O)C1OC (stereo not shown)

>  <unit-string>
µg/mL

>  <MIC>
2

$$$$

// assay Streptococcus pneumoniae Group D 9960, entry CCCC(=O)OC1C(C)OC(OC2C(C)OC(OC3C(CC=O)CC(C)C(=O)C=CC(C)=CC(COC4OC(C)C(O)C(O)C4OC)C(CC)OC(=O)CC(OC(C)=O)C3C)C(O)C2N(C)C)CC1(C)O (stereo not shown) , MIC value = 2

// assay Streptococcus pneumoniae Group D 9960, entry CCC1OC(=O)CC(OC(C)=O)C(C)C(OC2OC(C)C(O)C(N(C)C)C2O)C(CC=O)CC(C)C(=O)C=CC(C)=CC1COC1OC(C)C(O)C(O)C1OC (stereo not shown) , MIC value = 8
